# Test system: NCI-H1563 (Lung Adenocarcinoma)
# assay remarks: Bliss excess, mean over the matrix (fraction); higher = more synergy;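 further: after 72 h of two-drug dosing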
observed property: Bliss excess

INSERT INTO results (molecule, data_value) VALUES
  ('COc1nnc2ccc(N3CCC(c4ccc(OCCN5CCN(C)C(=O)[C@H]5C)cc4)CC3)nn12 [AZD5153] + Cn1cnc2c(F)c(Nc3ccc(Br)cc3Cl)c(C(=O)NOCCO)cc21 [Selumetinib] (first compound max 1 µM, 7x7, partner max 10 µM)', -0.085),
  ('C[C@@H](c1ccc2nccn2c1)n1nnc2ncc(-c3cnn(C)c3)nc21 [Savolitinib] + Cc1c2c(nn1C)CSCc1cc(n(C)n1)CSc1cc(c3ccccc3c1)OCCCc1c(C(=O)O)n(C)c3c-2c(Cl)ccc13 [AZD5991] (first compound max 1 µM, 7x7, partner max 1 µM)', -0.0271),
  ('CN(CCO)CC[C@H](CSc1ccccc1)Nc1ccc(S(=O)(=O)NC(=O)c2ccc(N3CCC([C@@H](O)c4ccccc4-c4ccc(Cl)cc4)CC3)cc2)cc1S(=O)(=O)C(F)(F)F [AZD4320] + Cn1cnc2c(F)c(Nc3ccc(Br)cc3Cl)c(C(=O)NOCCO)cc21 [Selumetinib] (first compound max 1 µM, 7x7, partner max 3 µM)', 0.045);

====

# Test system: HSC-3 (Oral Cavity Carcinoma)
# assay remarks: Bliss excess, mean over the matrix (fraction); higher = more synergy
observed property: Bliss excess

INSERT INTO measurements (compound, system_tested, data_value) VALUES
  ('Cc1c2c(nn1C)CSCc1cc(n(C)n1)CSc1cc(c3ccccc3c1)OCCCc1c(C(=O)O)n(C)c3c-2c(Cl)ccc13 [AZD5991] + C[C@@H](Nc1cc(F)cc(F)c1)c1cc(C(=O)N(C)C)cc2c(=O)cc(N3CCOCC3)oc12 [AZD8186] (first compound max 1 µM, 7x7, partner max 3 µM)', 'HSC-3 (Oral Cavity Carcinoma)', -0.001),
  ('CC1(C)CCC(CN2CCN(c3ccc(C(=O)NS(=O)(=O)c4ccc(NCC5CCOCC5)c([N+](=O)[O-])c4)c(Oc4cnc5[nH]ccc5c4)c3)CC2)=C(c2ccc(Cl)cc2)C1 [Venetoclax] + COc1cc(Nc2ncc3c(n2)-c2ccc(Cl)cc2C(c2c(F)cccc2OC)=NC3)ccc1C(=O)O [Alisertib] (first compound max 1 µM, 7x7, partner max 10 µM)', 'HSC-3 (Oral Cavity Carcinoma)', 0.0079),
  ('CC(=O)c1c(C)c2cnc(Nc3ccc(N4CCNCC4)cn3)nc2n(C2CCCC2)c1=O [Palbociclib] + Cn1cnc2c(F)c(Nc3ccc(Br)cc3Cl)c(C(=O)NOCCO)cc21 [Selumetinib] (first compound max 10 µM, 7x7, partner max 10 µM)', 'HSC-3 (Oral Cavity Carcinoma)', -0.0418);

====

# Tested on: HSC-3 (Oral Cavity Carcinoma)
# assay remarks: Bliss excess, mean over the matrix (fraction); higher = more synergy
Recorded Bliss excess, one value per entry.
observed property: Bliss excess

INSERT INTO assay_data (compound, system_tested, observed_property, data_value) VALUES
  ('CCc1c2c(nc3ccc(O)cc13)-c1cc3c(c(=O)n1C2)COC(=O)[C@]3(O)CC [SN-38] + O=C(c1cc(Cc2n[nH]c(=O)c3ccccc23)ccc1F)N1CCN(C(=O)C2CC2)CC1 [Olaparib] (first compound max 0.3 µM, 7x7, partner max 10 µM)', 'HSC-3 (Oral Cavity Carcinoma)', 'Bliss excess', 0.0263),
  ('NC1(C(=O)N[C@@H](CCO)c2ccc(Cl)cc2)CCN(c2ncnc3[nH]ccc23)CC1 [Capivasertib] + CCN(CCO)CCCOc1ccc2c(Nc3cc(CC(=O)Nc4cccc(F)c4)[nH]n3)ncnc2c1 [AZD2811] (first compound max 10 µM, 7x7, partner max 1 µM)', 'HSC-3 (Oral Cavity Carcinoma)', 'Bliss excess', -0.0374);

This collection of values is drawn from the supplement of paper PMC11061612.
